Test system: primary AML specimens
Test: Viability of primary AML specimens, Annexin V/7-AAD flow cytometry
Format: cell-based, human
Settings: primary AML specimens
REPORTED METRIC: Cytotoxic AML

compound_string=O=C1Cc2c([nH]c3ccc(Br)cc23)-c2ncccc2N1 tested_on="primary AML specimens" reported_metric="Cytotoxic AML" assay_result=No
compound_string=Cc1cc(Nc2nc(-c3ccccc3)nc3ccccc23)n[nH]1 tested_on="primary AML specimens" reported_metric="Cytotoxic AML" assay_result=No
compound_string=O=C1Nc2cc(Br)ccc2/C1=C1/Nc2ccccc2/C1=N\O tested_on="primary AML specimens" reported_metric="Cytotoxic AML" assay_result=No
